Measured on: recombinant human protein kinase CK2 alpha subunit (Homo sapiens)
Experiment summary: Luminescent (Kinase-Glo) CK2 screening assay
Format: biochemical
Experimental context: inhibitor 1 μM; ATP 10 µM, peptide substrate RRRDDDSDDD 200 µM; 30 °C, 40 min; triplicate; LI = luciferase inhibition (luminescence lower than control)
Method: The study was conducted using recombinant human protein kinase CK2 alpha subunit, obtained using plasmid pZW6 (Addgene, USA, catalogue number 27086), ATP (Sigma-Aldrich, USA, catalogue number A2383) and peptide substrate RRRDDDSDDD (GenScript, USA, catalogue number RP10318). […] The luminescent assay measured sample luminescence following the addition of the Kinase-Glo luciferase mixture, with the signal reflecting the remaining ATP content. […]
Reported I (%) (inhibition) values for the following molecules.

The cases that follow already have their I (%) (inhibition) on record.
O=C1C(=Cc2ccc(O)c(F)c2)Oc2ccc(Br)cc21 : <25%
O=C1C(=Cc2cc(Cl)c(O)c(Cl)c2)Oc2c1ccc1ccccc21 : <25%
O=C(O)COc1ccc2c(c1)OC(=Cc1cccc(F)c1)C2=O : <25%

// below: I (%) (inhibition) requested for another molecule
[Q] What does the record list as I (%) (inhibition) for O=C1/C(=C/c2ccc(O)c(F)c2)Oc2ccccc21 ?
[A] 36 ± 12%

====

Measured on: recombinant human protein kinase CK2 alpha subunit (Homo sapiens)
Experiment summary: Luminescent (Kinase-Glo) CK2 screening assay
Format: biochemical
Experimental context: inhibitor 1 μM; ATP 10 µM, peptide substrate RRRDDDSDDD 200 µM; 30 °C, 40 min; triplicate; LI = luciferase inhibition (luminescence lower than control)
Endpoint: I (%) (inhibition)
Express the result in % but write the number alone.

O=C1/C(=C/c2cc(Br)c(O)c(Br)c2)Oc2ccc3ccccc3c21 : 69

Here's the next entry for you.
[Q] Would you kindly share the measured I (%) (inhibition) for O=C(O)c1cc(C=C2Oc3ccc4ccccc4c3C2=O)ccc1O ?
[A] 32

====

Measured on: recombinant human protein kinase CK2 alpha subunit (Homo sapiens, UniProt P68400)
Sequence (P68400 whole entry): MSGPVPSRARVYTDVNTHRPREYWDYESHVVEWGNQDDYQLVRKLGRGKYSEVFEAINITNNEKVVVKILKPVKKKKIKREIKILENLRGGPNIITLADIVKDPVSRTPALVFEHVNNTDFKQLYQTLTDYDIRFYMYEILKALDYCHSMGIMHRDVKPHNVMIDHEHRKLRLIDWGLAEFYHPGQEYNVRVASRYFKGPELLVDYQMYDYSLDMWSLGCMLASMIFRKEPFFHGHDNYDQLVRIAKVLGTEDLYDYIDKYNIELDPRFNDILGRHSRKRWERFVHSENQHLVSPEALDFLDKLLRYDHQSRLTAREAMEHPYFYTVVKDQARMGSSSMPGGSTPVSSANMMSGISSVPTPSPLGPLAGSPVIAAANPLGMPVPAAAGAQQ
Experiment summary: Luminescent (Kinase-Glo) CK2 screening assay
Format: biochemical
Experimental context: inhibitor 1 μM; ATP 10 µM, peptide substrate RRRDDDSDDD 200 µM; 30 °C, 40 min; triplicate; LI = luciferase inhibition (luminescence lower than control)
Endpoint: I (%) (inhibition)

[Q] Name the recorded I (%) (inhibition) for O=C1C(=Cc2ccc(O)cc2)Oc2ccc3ccccc3c21 .
[A] <25%

[Q] Recorded I (%) (inhibition) for Cc1cc(C=C2Oc3ccc4ccccc4c3C2=O)ccc1O , please?
[A] <25%

[Q] What measured I (%) (inhibition) goes with O=C(O)COc1ccc2c(c1)OC(=Cc1ccc(C(=O)O)cc1)C2=O ?
[A] <25%
